// data source = patent US20260097037A1

- tested-target: Human GLP-1 receptor stably expressing cells (hGLP-1R/CHO-K1 cells) (Homo sapiens)
- Construct: expressed in transfected cells
- experiment-summary: Measurement of GLP-1 receptor agonist activity (cAMP assay)
- Type: cell-based
- condition-set: CHO-K1, maximum effect; cAMP with 2 nM human GLP-1 (7-36) = 100%, DMSO only = 0%; read-out: Emax
This section presents compounds with their documented Emax values.
Response body: numeric value in %, unit text excluded.

Past entries and their recorded results:
C[C@H]1c2nc(OCc3cc(F)c(Cl)cc3F)c(C(F)F)cc2CCN1Cc1nc2ccc(C(=O)O)cc2n1C[C@@H]1CCO1 = 99.3
COc1cc(C(=O)O)cc2c1nc(CN1CCc3cc(C(F)(F)F)c(NCc4ccc(Cl)cc4F)nc3[C@@H]1C)n2C[C@@H]1CCO1 = 105
C[C@H]1c2cc(OCc3cc(F)c(Cl)cc3F)c(C(F)F)cc2CCN1Cc1nc2ccc(C(=O)O)cc2n1C[C@@H]1CCO1 = 117
C[C@H]1c2nc(NCc3ccc(Cl)cc3F)c(C(F)(F)F)cc2CCN1Cc1nc2c(F)cc(C(=O)O)cc2n1C[C@@H]1CCO1 = 105
C[C@H]1c2nc(OCc3ccc(F)cc3)c(Cl)cc2CCN1Cc1nc2ccc(C(=O)O)c(F)c2n1C[C@@H]1CCO1 = 127

Look up Emax: C[C@H]1c2cc(OCc3ccc(F)cc3)c(C(F)F)cc2CCN1Cc1nc2ccc(C(=O)O)cc2n1C[C@@H]1CCO1
102

Same question for C[C@H]1c2nc(OCc3cc(Cl)n(C)n3)c(C(F)(F)F)cc2CCN1Cc1nc2ccc(C(=O)O)cc2n1C[C@@H]1CCO1 please.
101

Same question for C[C@H]1c2nc(OCc3cc(F)c(Cl)cc3F)c(C#N)cc2CCN1Cc1nc2c(Cl)cc(C(=O)O)cc2n1C[C@@H]1CCO1 please.
120

Same question for C[C@H]1c2nc(OCc3ccc(C#N)cc3F)c(C(F)F)cc2CCN1Cc1nc2ccc(C(=O)O)cc2n1C[C@@H]1CCO1 please.
92.3

Same question for COc1cc(Cl)ccc1COc1nc2c(cc1C#N)CCN(Cc1nc3c(Cl)cc(C(=O)O)cc3n1C[C@@H]1CCO1)[C@H]2C please.
137

Same question for COc1cc(C(=O)O)cc2c1nc(CN1CCc3cc(C#N)c(OCc4ccc(Cl)cc4F)nc3[C@@H]1C)n2C[C@@H]1CCO1 please.
118

Same question for C[C@H]1c2nc(OCc3cnn(C)n3)c(C(F)(F)F)cc2CCN1Cc1nc2ccc(C(=O)O)cc2n1C[C@@H]1CCO1 please.
117

Same question for C[C@H]1c2nc(OCc3c(F)cc(Cl)cc3F)c(Cl)cc2CCN1Cc1nc2c(F)cc(C(=O)O)cc2n1C[C@@H]1CCO1 please.
103

Same question for C[C@H]1c2nc(OCc3nc(Cl)cs3)c(C(F)(F)F)cc2CCN1Cc1nc2ccc(C(=O)O)cc2n1C[C@@H]1CCO1 please.
97.7

====

- tested-target: Human GLP-1 receptor stably expressing cells (hGLP-1R/CHO-K1 cells) (Homo sapiens)
- experiment-summary: Measurement of GLP-1 receptor agonist activity (cAMP assay)
- condition-set: increase in cAMP concentration in hGLP-1R/CHO-K1 cells, 37° C. 1 hour
- Procedure: Test Example 1: Measurement of GLP-1 Receptor Agonist Activity Human GLP-1 receptor stably expressing cells (hGLP-1R/CHO-K1 cells) are cultured in an a-MEM medium (Sigma) containing 10% FBS (Hyclone), 2% GlutaMAX (Gibco), 1% G418 (Nacalai Tesque), and 1% Penicillin-Streptomycin Mixed Solution (Sigma) at 37° C. under 5% CO2 conditions, and recovered by treating a 10 fold diluted 5.0 g/1-trypsin/5.3 mmol/1-EDTA solution (Nacalai Tesque) and cryopreserved. […]
This section presents compounds with their documented pEC50 values.
The meaning of pEC50 here: minus log10 of the concentration in molar units.

Past entries and their recorded results:
C[C@H]1c2nc(OCc3ccccc3Cl)c(C(F)F)cc2CCN1Cc1nc2ccc(C(=O)O)nc2n1C[C@@H]1CCO1 [Compound I-099] = 8.59
C[C@H]1c2c(ccc3c2OC(C)(c2ccc(Cl)cc2F)O3)CCN1Cc1nc2ccc(C(=O)O)cc2n1C[C@@H]1CCO1 (stereo partly drawn) [Compound I-091] = 8.58

Proceeding to the next compound to report its pEC50.
Look up pEC50: C[C@H]1c2cc(OCc3c(F)cc(F)cc3F)c(Cl)cc2CCN1Cc1nc2ccc(C(=O)O)c(F)c2n1C[C@@H]1CCO1 [Compound I-044]
9.96

====

- tested-target: Human GLP-1 receptor stably expressing cells (hGLP-1R/CHO-K1 cells) (Homo sapiens, UniProt P43220)
- Sequence (P43220 24-463): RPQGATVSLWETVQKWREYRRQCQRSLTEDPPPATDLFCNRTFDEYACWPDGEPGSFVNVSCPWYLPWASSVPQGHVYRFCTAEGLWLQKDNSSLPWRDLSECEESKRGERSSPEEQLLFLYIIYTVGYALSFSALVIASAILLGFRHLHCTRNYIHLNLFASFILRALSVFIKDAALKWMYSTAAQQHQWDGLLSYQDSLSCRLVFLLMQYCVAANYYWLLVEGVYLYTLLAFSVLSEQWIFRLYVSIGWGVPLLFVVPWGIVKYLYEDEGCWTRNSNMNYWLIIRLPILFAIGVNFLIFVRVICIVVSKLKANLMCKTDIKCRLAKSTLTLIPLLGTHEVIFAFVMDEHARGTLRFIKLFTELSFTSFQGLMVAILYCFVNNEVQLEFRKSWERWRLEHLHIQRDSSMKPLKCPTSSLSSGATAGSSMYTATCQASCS
- experiment-summary: Measurement of GLP-1 receptor agonist activity (cAMP assay)
- condition-set: increase in cAMP concentration in hGLP-1R/CHO-K1 cells, 37° C. 1 hour
measure-name: EC50 (nM)
Response body: numeric value in nM, unit text excluded.

Past entries and their recorded results:
C[C@H]1c2nc(OCc3ccc(C#N)cc3F)c(Cl)cc2CCN1Cc1nc2ccc(C(=O)O)nc2n1C[C@@H]1CCO1 [Compound I-032] = 0.368
C[C@H]1c2nc(OCc3ccc(F)cc3)c(Cl)cc2CCN1Cc1nc2ccc(C(=O)O)cc2n1C[C@@H]1CCO1 [Compound I-023] = 0.443
C[C@H]1c2nc(OCc3ccc(F)cc3)c(C(F)F)cc2CCN1Cc1nc2ccc(C(=O)O)cc2n1C[C@@H]1CCO1 [Compound I-051] = 1.02
COc1cc(C(=O)O)cc2c1nc(CN1CCc3cc(C(F)F)c(OCc4ccc(Cl)cc4)nc3[C@@H]1C)n2C[C@@H]1CCO1 [Compound I-129] = 0.0303

Look up EC50: C[C@H]1c2nc(OCc3cc(F)c(Cl)cc3F)c(C(F)F)cc2CCN1Cc1nc2ccc(C(=O)O)cc2n1C[C@@H]1CCO1 [Compound I-062]
0.215

Same question for C[C@H]1c2cc(OCc3cc(F)c(Cl)cc3F)c(C(F)F)cc2CCN1Cc1nc2ccc(C(=O)O)cc2n1C[C@@H]1CCO1 [Compound I-010] please.
1.99

Same question for C[C@H]1c2nc(OCc3cc(F)c(Cl)cc3F)c(Cl)cc2CCN1Cc1nc2ccc(C(=O)O)c(F)c2n1C[C@@H]1CCO1 [Compound I-040] please.
0.0679

Same question for C[C@H]1c2nc(OCc3ncc(Cl)s3)c(C(F)(F)F)cc2CCN1Cc1nc2ccc(C(=O)O)cc2n1C[C@@H]1CCO1 [Compound I-048] please.
3.31

Same question for COc1cc(C(=O)O)cc2c1nc(CN1CCc3cc(C(F)(F)F)c4c(c3[C@@H]1C)O[C@@](C)(c1ccc(Cl)cc1F)O4)n2C[C@@H]1CCO1 [Compound I-170] please.
0.243

Same question for C[C@H]1c2nc(OCc3ccc(Cl)cc3F)c(C#N)cc2CCN1Cc1nc2ccc(C(=O)O)c(F)c2n1C[C@@H]1CCO1 [Compound I-137] please.
0.224

====

This section presents compounds with their documented Emax values.
- tested-target: Human GLP-1 receptor stably expressing cells (hGLP-1R/CHO-K1 cells) (Homo sapiens, UniProt P43220)
- Construct: expressed in transfected cells
- experiment-summary: Measurement of GLP-1 receptor agonist activity (cAMP assay)
- Type: cell-based
- condition-set: CHO-K1, maximum effect; cAMP with 2 nM human GLP-1 (7-36) = 100%, DMSO only = 0%; read-out: Emax
Response body: numeric value in %, unit text excluded.

Past entries and their recorded results:
C[C@H]1c2nc(OCc3ccc(C#N)cc3F)c(C(F)F)cc2CCN1Cc1nc2ccc(C(=O)O)c(F)c2n1C[C@@H]1CCO1 = 121
Cc1cc(-c2cc(C(=O)O)cc3c2nc(CN2CCc4cc(C(F)(F)F)c(OCc5ccc(Cl)cc5F)nc4[C@@H]2C)n3C[C@@H]2CCO2)on1 = 96.3
COc1cc(C(=O)O)cc2c1nc(CN1CCc3cc(C(F)F)c(OCc4ccc(C#N)cc4F)nc3[C@@H]1C)n2C[C@@H]1CCO1 = 134

Look up Emax: C[C@H]1c2nc(NCc3ccc(C#N)cc3F)c(C(F)(F)F)cc2CCN1Cc1nc2c(F)cc(C(=O)O)cc2n1C[C@@H]1CCO1
110

Same question for C[C@H]1c2nc(OCc3ccccc3Cl)c(C(F)F)cc2CCN1Cc1nc2ccc(C(=O)O)c(F)c2n1C[C@@H]1CCO1 please.
121

Same question for C[C@H]1c2cc(OCc3c(F)cc(F)cc3F)c(Cl)cc2CCN1Cc1nc2ccc(C(=O)O)c(F)c2n1C[C@@H]1CCO1 please.
126

Same question for C[C@H]1c2nc(OCc3c(F)cc(F)cc3F)c(Cl)cc2CCN1Cc1nc2ccc(C(=O)O)cc2n1C[C@@H]1CCO1 please.
113

Same question for Cc1ccc(COc2nc3c(cc2C(F)F)CCN(Cc2nc4ccc(C(=O)O)c(F)c4n2C[C@@H]2CCO2)[C@H]3C)cc1 please.
120

Same question for C[C@H]1c2nc(OCc3ccc(Cl)cn3)c(C(F)F)cc2CCN1Cc1nc2ccc(C(=O)O)cc2n1C[C@@H]1CCO1 please.
92.7

Same question for C[C@H]1c2cc(OCc3ccc(Cl)cc3Cl)c(C(F)F)cc2CCN1Cc1nc2ccc(C(=O)O)cc2n1C[C@@H]1CCO1 please.
122

Same question for C[C@H]1c2nc(OCc3ccc(C#N)c4occc34)c(C(F)(F)F)cc2CCN1Cc1nc2ccc(C(=O)O)cc2n1C[C@@H]1CCO1 please.
111

Same question for C[C@H]1c2nc(OCc3cc(F)c(Cl)cc3F)c(C(F)F)cc2CCN1Cc1nc2c(F)cc(C(=O)O)cc2n1C[C@@H]1CCO1 please.
113

Same question for C[C@H]1c2nc(OCc3c(F)cc(C#N)cc3F)c(C(F)(F)F)cc2CCN1Cc1nc2ccc(C(=O)O)cc2n1C[C@@H]1CCO1 please.
111
